Data provenance is patent EP4745130A1.

Protocol text: Dynamic solubility experiment at 37°C (water, SGF, FaSSIF, FeSSIF)
Condition details: pH value of the filtrate, SGF, 4 hours
Structures can show the parent of a compound that is named as a salt.
Attribute measured: pH

>>> reported_value("Cc1cc(OCCN2C[C@H]3COC[C@H]3C2)ccc1-c1ccc(CC(=O)NCc2ccccc2)nc1 [Free form crystal form A]")
5.8
>>> reported_value("Cc1cc(OCCN2C[C@H]3COC[C@H]3C2)ccc1-c1ccc(CC(=O)NCc2ccccc2)nc1 [Crystal form B of oxalate salt]")
3.1
>>> reported_value("Cc1cc(OCCN2C[C@H]3COC[C@H]3C2)ccc1-c1ccc(CC(=O)NCc2ccccc2)nc1 [Crystal form A of phosphate salt]")
3.4
>>> reported_value("Cc1cc(OCCN2C[C@H]3COC[C@H]3C2)ccc1-c1ccc(CC(=O)NCc2ccccc2)nc1 [Crystal form A of benzenesulfonate salt]")
3.5
>>> reported_value("Cc1cc(OCCN2C[C@H]3COC[C@H]3C2)ccc1-c1ccc(CC(=O)NCc2ccccc2)nc1 [Crystal form A of fumarate salt]")
3.4

---

Protocol text: physchem
Condition details: fessif
Where a name gives a salt, the structure may show the parent alone.
Attribute measured: solubility at 4 h (µg/mL)

>>> reported_value("Cc1cc(OCCN2C[C@H]3COC[C@H]3C2)ccc1-c1ccc(CC(=O)NCc2ccccc2)nc1 [Crystal form A of fumarate salt]")
3600

---

Protocol text: Solid-state stability (XRPD and HPLC after open storage)
Format: physicochemical
Condition details: 25°C/60%RH/open, 1 week
Structures can show the parent of a compound that is named as a salt.
Attribute measured: Purity (area%)

>>> reported_value("Cc1cc(OCCN2C[C@H]3COC[C@H]3C2)ccc1-c1ccc(CC(=O)NCc2ccccc2)nc1 [Crystal form A of phosphate salt]")
97.84
>>> reported_value("Cc1cc(OCCN2C[C@H]3COC[C@H]3C2)ccc1-c1ccc(CC(=O)NCc2ccccc2)nc1 [Crystal form A of fumarate salt]")
97.02
>>> reported_value("Cc1cc(OCCN2C[C@H]3COC[C@H]3C2)ccc1-c1ccc(CC(=O)NCc2ccccc2)nc1 [Free form crystal form A]")
96.76
>>> reported_value("Cc1cc(OCCN2C[C@H]3COC[C@H]3C2)ccc1-c1ccc(CC(=O)NCc2ccccc2)nc1 [Crystal form B of oxalate salt]")
97.49
>>> reported_value("Cc1cc(OCCN2C[C@H]3COC[C@H]3C2)ccc1-c1ccc(CC(=O)NCc2ccccc2)nc1 [Crystal form A of benzenesulfonate salt]")
97.61

---

Protocol text: Dynamic solubility experiment at 37°C (water, SGF, FaSSIF, FeSSIF)
Condition details: pH value of the filtrate, SGF, 24 hours
Counter-ions that a name gives are not always drawn.
# pH per record follows
Attribute measured: pH

>>> reported_value("Cc1cc(OCCN2C[C@H]3COC[C@H]3C2)ccc1-c1ccc(CC(=O)NCc2ccccc2)nc1 [Crystal form A of phosphate salt]")
3.4
>>> reported_value("Cc1cc(OCCN2C[C@H]3COC[C@H]3C2)ccc1-c1ccc(CC(=O)NCc2ccccc2)nc1 [Crystal form B of oxalate salt]")
3.1
>>> reported_value("Cc1cc(OCCN2C[C@H]3COC[C@H]3C2)ccc1-c1ccc(CC(=O)NCc2ccccc2)nc1 [Free form crystal form A]")
5.9
>>> reported_value("Cc1cc(OCCN2C[C@H]3COC[C@H]3C2)ccc1-c1ccc(CC(=O)NCc2ccccc2)nc1 [Crystal form A of fumarate salt]")
3.4
>>> reported_value("Cc1cc(OCCN2C[C@H]3COC[C@H]3C2)ccc1-c1ccc(CC(=O)NCc2ccccc2)nc1 [Crystal form A of benzenesulfonate salt]")
3.5

---

# Relative to initial (%) per record follows
Protocol text: Solid-state stability (XRPD and HPLC after open storage)
Type: physicochemical
Condition details: 25°C/60%RH/open, 1 week
Where a name gives a salt, the structure may show the parent alone.
Attribute measured: Relative to initial (%)

>>> reported_value("Cc1cc(OCCN2C[C@H]3COC[C@H]3C2)ccc1-c1ccc(CC(=O)NCc2ccccc2)nc1 [Free form crystal form A]")
99.9
>>> reported_value("Cc1cc(OCCN2C[C@H]3COC[C@H]3C2)ccc1-c1ccc(CC(=O)NCc2ccccc2)nc1 [Crystal form A of fumarate salt]")
100.0
>>> reported_value("Cc1cc(OCCN2C[C@H]3COC[C@H]3C2)ccc1-c1ccc(CC(=O)NCc2ccccc2)nc1 [Crystal form A of phosphate salt]")
100.2
>>> reported_value("Cc1cc(OCCN2C[C@H]3COC[C@H]3C2)ccc1-c1ccc(CC(=O)NCc2ccccc2)nc1 [Crystal form A of benzenesulfonate salt]")
99.8
>>> reported_value("Cc1cc(OCCN2C[C@H]3COC[C@H]3C2)ccc1-c1ccc(CC(=O)NCc2ccccc2)nc1 [Crystal form B of oxalate salt]")
100.0

---

Protocol text: physchem
Condition details: fessif
Where a name gives a salt, the structure may show the parent alone.
Attribute measured: solubility at 1 h (µg/mL)

>>> reported_value("Cc1cc(OCCN2C[C@H]3COC[C@H]3C2)ccc1-c1ccc(CC(=O)NCc2ccccc2)nc1 [Crystal form A of fumarate salt]")
3630

---

Protocol text: Solid-state stability (XRPD and HPLC after open storage)
Type: physicochemical
Condition details: Initial
Structures can show the parent of a compound that is named as a salt.
Attribute measured: Purity (area%)

>>> reported_value("Cc1cc(OCCN2C[C@H]3COC[C@H]3C2)ccc1-c1ccc(CC(=O)NCc2ccccc2)nc1 [Crystal form B of oxalate salt]")
"97.47 area%"
>>> reported_value("Cc1cc(OCCN2C[C@H]3COC[C@H]3C2)ccc1-c1ccc(CC(=O)NCc2ccccc2)nc1 [Crystal form A of fumarate salt]")
"96.99 area%"
>>> reported_value("Cc1cc(OCCN2C[C@H]3COC[C@H]3C2)ccc1-c1ccc(CC(=O)NCc2ccccc2)nc1 [Crystal form A of benzenesulfonate salt]")
"97.78 area%"
>>> reported_value("Cc1cc(OCCN2C[C@H]3COC[C@H]3C2)ccc1-c1ccc(CC(=O)NCc2ccccc2)nc1 [Crystal form A of phosphate salt]")
"97.62 area%"
>>> reported_value("Cc1cc(OCCN2C[C@H]3COC[C@H]3C2)ccc1-c1ccc(CC(=O)NCc2ccccc2)nc1 [Free form crystal form A]")
"96.86 area%"

---

Protocol text: Thermodynamic solubility test
Format: physicochemical
Condition details: phosphate buffer saline (PBS), aqueous buffer, thermodynamic from solid; PBS (pH 7.4); 4 mg/mL, overnight at room temperature; read-out: Solubility (µg/mL) PBS (pH 7.4)
# solubility per record follows
Attribute measured: solubility (µg/mL)

>>> reported_value("Cc1cc(OCCN2C[C@H]3COC[C@H]3C2)ccc1-c1ccc(CC(=O)NCc2ccccc2)nc1 [Compound of Formula I]")
101
>>> reported_value("O=C(Cc1ccc(-c2ccc(OCCN3CCOCC3)cc2)cn1)NCc1ccccc1 [Control compound, Tirbanibulin, reference compound]")
9.77

---

Protocol text: Dynamic solubility experiment at 37°C (water, SGF, FaSSIF, FeSSIF)
Condition details: FeSSIF, 24 hours, solid feed 10 mg/mL, 1440 min
Structures can show the parent of a compound that is named as a salt.
Attribute measured: S: solubility (mg/mL)

>>> reported_value("Cc1cc(OCCN2C[C@H]3COC[C@H]3C2)ccc1-c1ccc(CC(=O)NCc2ccccc2)nc1 [Crystal form B of oxalate salt]")
3.48
>>> reported_value("Cc1cc(OCCN2C[C@H]3COC[C@H]3C2)ccc1-c1ccc(CC(=O)NCc2ccccc2)nc1 [Crystal form A of phosphate salt]")
3.73
>>> reported_value("Cc1cc(OCCN2C[C@H]3COC[C@H]3C2)ccc1-c1ccc(CC(=O)NCc2ccccc2)nc1 [Crystal form A of benzenesulfonate salt]")
2.91
>>> reported_value("Cc1cc(OCCN2C[C@H]3COC[C@H]3C2)ccc1-c1ccc(CC(=O)NCc2ccccc2)nc1 [Free form crystal form A]")
3.46

---

Protocol text: Dynamic solubility experiment at 37°C (water, SGF, FaSSIF, FeSSIF)
Condition details: pH value of the filtrate, H2O, 24 hours
Counter-ions that a name gives are not always drawn.
# pH per record follows
Attribute measured: pH

>>> reported_value("Cc1cc(OCCN2C[C@H]3COC[C@H]3C2)ccc1-c1ccc(CC(=O)NCc2ccccc2)nc1 [Crystal form B of oxalate salt]")
3.9
>>> reported_value("Cc1cc(OCCN2C[C@H]3COC[C@H]3C2)ccc1-c1ccc(CC(=O)NCc2ccccc2)nc1 [Crystal form A of benzenesulfonate salt]")
5.6
>>> reported_value("Cc1cc(OCCN2C[C@H]3COC[C@H]3C2)ccc1-c1ccc(CC(=O)NCc2ccccc2)nc1 [Crystal form A of fumarate salt]")
4.0
>>> reported_value("Cc1cc(OCCN2C[C@H]3COC[C@H]3C2)ccc1-c1ccc(CC(=O)NCc2ccccc2)nc1 [Crystal form A of phosphate salt]")
5.3
>>> reported_value("Cc1cc(OCCN2C[C@H]3COC[C@H]3C2)ccc1-c1ccc(CC(=O)NCc2ccccc2)nc1 [Free form crystal form A]")
8.5
